The reported numbers originate from ChEMBL document CHEMBL4017441.

Counter-ions that a name gives are not always drawn.
This section lists pIC50 readings for Bile salt export pump (Homo sapiens).
Convention used: pIC50 is expressed as -log10 of the molar concentration.

Consider the following illustrative entries.
{"columns": ["compound", "assay_value"],
 "data": [
  ["CCN(CC)C(=S)S [DITIOCARB]", 4.16],
  ["FC(F)(F)c1cccc(C2=CCN(CCc3ccc4ccccc4c3)CC2)c1 [XALIPRODEN]", 3.93],
  ["CCOC(=O)[C@H](CCc1ccccc1)N[C@@H](C)C(=O)N1CC2(C[C@H]1C(=O)O)SCCS2 [SPIRAPRIL HYDROCHLORIDE]", 4.33]
]}

# evaluate next
## Input API: value(readout=pIC50, system=Bile salt export pump (Homo sapiens)) for record Nc1nc2ccc(OC(F)(F)F)cc2s1 [RILUZOLE]
## Output 3.86
